target: UniProt Q9Y5Y4; assay: FRET based competitive immunoassay (cAMP) in CRTH2 expressing CHO cells; conditions: CRTH2 expressing CHO cells incubated with forskolin and PGD2; Eu3+ cryptate-labeled anti-cAMP and d2-labeled cAMP

MOLECULE	IC50
Cc1ccccc1S(=O)(=O)NC(=O)Cn1c(C)c(-c2ccc(=O)n(Cc3ccccc3)c2)c2cc(F)ccc21 [Example 314]	> 1000 nM
Cc1c(-c2nn(Cc3ccccc3)c(=O)c3ccccc23)c2ccccc2n1CC(=O)NS(C)(=O)=O [Example 50]	> 1500 nM
Cc1c(-c2nn(Cc3nnc[nH]3)c(=O)c3ccccc23)c2cc(F)ccc2n1CC(=O)O [Example 270]	> 5500 nM

====

target: CRTH2 (Homo sapiens); assay: FRET based competitive immunoassay (cAMP) in CRTH2 expressing CHO cells; settings: CRTH2 expressing CHO cells incubated with forskolin and PGD2; Eu3+ cryptate-labeled anti-cAMP and d2-labeled cAMP
MEASURE: IC50

COMPOUND	MEASURE	VALUE_REPORTED
Cc1c(-c2ccc(=O)n(Cc3ccccc3)n2)c2cc(F)cc(S(C)(=O)=O)c2n1CC(=O)O [Example 236]	IC50	> 1000 nM
Cc1c(-c2nn(Cc3ccccc3)c(=O)c3ccccc23)c2cc(F)cc(S(C)(=O)=O)c2n1CC(=O)O [Example 237]	IC50	> 1000 nM
Cc1c(-c2ccc(=O)n(Cc3cccc(F)c3F)c2)c2cc(F)ccc2n1CCO [Example 305]	IC50	> 2000 nM
Cc1c(-c2cn(CC(C)(C)O)c(=O)c3c2CCCC3)c2cc(F)ccc2n1CC(=O)O [Example 92]	IC50	> 1000 nM

====

biological target: CRTH2 (Homo sapiens, UniProt Q9Y5Y4); test: FRET based competitive immunoassay (cAMP) in CRTH2 expressing CHO cells; details: CRTH2 expressing CHO cells incubated with forskolin and PGD2; Eu3+ cryptate-labeled anti-cAMP and d2-labeled cAMP
Sequence (Q9Y5Y4 whole entry): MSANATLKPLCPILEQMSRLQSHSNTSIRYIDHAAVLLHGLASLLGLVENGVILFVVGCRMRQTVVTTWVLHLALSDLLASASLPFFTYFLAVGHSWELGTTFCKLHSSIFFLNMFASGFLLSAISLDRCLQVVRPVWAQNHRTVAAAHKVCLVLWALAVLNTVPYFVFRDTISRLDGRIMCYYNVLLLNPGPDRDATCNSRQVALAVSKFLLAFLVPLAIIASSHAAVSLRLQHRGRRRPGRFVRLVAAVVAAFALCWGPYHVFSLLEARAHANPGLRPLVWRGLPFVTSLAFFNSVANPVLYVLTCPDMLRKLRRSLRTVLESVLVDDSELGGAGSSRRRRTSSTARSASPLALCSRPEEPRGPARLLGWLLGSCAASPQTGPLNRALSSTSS
Listed compounds paired with reported IC50
MEASURE: IC50 (nM)

CHEMICAL_STRING	MEASURED_TARGET	MEASURE	REL	VALUE_REPORTED
Cc1c(Cc2ccc(=O)n(C(C)C)c2)c2ccccc2n1CC(=O)O	CRTH2 (Homo sapiens, UniProt Q9Y5Y4)	IC50	=	765
Cc1c(-c2ccc(=O)n(Cc3ccccc3)c2)c2cc(F)ccc2n1CC(=O)NS(=O)(=O)C1CC1	CRTH2 (Homo sapiens, UniProt Q9Y5Y4)	IC50	>	1000
Cc1c(-c2nn(CCOc3ccccc3)c(=O)c3ccccc23)c2cc(Cl)ccc2n1CC(=O)O	CRTH2 (Homo sapiens, UniProt Q9Y5Y4)	IC50	=	6
Cc1c(-c2ccc(=O)n(Cc3ccccc3F)c2)c2cc(Cl)ccc2n1CC(=O)O	CRTH2 (Homo sapiens, UniProt Q9Y5Y4)	IC50	=	7
Cc1c(-c2ccc(=O)n(Cc3ccccc3C(F)(F)F)n2)c2cc(F)ccc2n1CC(=O)O	CRTH2 (Homo sapiens, UniProt Q9Y5Y4)	IC50	=	14
CCC(=O)Cn1nc(-c2c(C)n(CC(=O)O)c3ccc(F)cc23)c2ccccc2c1=O	CRTH2 (Homo sapiens, UniProt Q9Y5Y4)	IC50	=	8

====

biological target: CRTH2 (Homo sapiens, UniProt Q9Y5Y4); assay: FRET based competitive immunoassay (cAMP) in CRTH2 expressing CHO cells; conditions: CRTH2 expressing CHO cells incubated with forskolin and PGD2; Eu3+ cryptate-labeled anti-cAMP and d2-labeled cAMP

CHEMICAL_STRING	MEASURED_TARGET	UNIT_DESCRIPTOR	REL	IC50
CC(=O)Nc1cccc2c1c(Cc1ccc(=O)n(Cc3ccc(F)cc3F)n1)c(C)n2CC(=O)O	CRTH2 (Homo sapiens, UniProt Q9Y5Y4)	nM	>	2000
Cc1c(-c2nn(C3CCCC3)c(=O)c3ccccc23)c2ccccc2n1CC(=O)O	CRTH2 (Homo sapiens, UniProt Q9Y5Y4)	nM	>	1000
Cc1c(-c2ccc(=O)n(Cc3cccc(F)c3F)c2)c2cc(F)ccc2n1CC(=O)N(C)C	CRTH2 (Homo sapiens, UniProt Q9Y5Y4)	nM	>	2000
Cc1c(Cc2ccc(=O)n(CC(F)(F)F)c2)c2cc(F)ccc2n1CC(=O)O	CRTH2 (Homo sapiens, UniProt Q9Y5Y4)	nM	=	55
Cc1c(Cc2ccc(=O)n(Cc3c(F)cccc3F)c2)c2ccccc2n1CC(=O)O	CRTH2 (Homo sapiens, UniProt Q9Y5Y4)	nM	=	35
Cc1c(-c2ccc(=O)n(Cc3ccc4ccccc4n3)n2)c2cc(Cl)ccc2n1CC(=O)O	CRTH2 (Homo sapiens, UniProt Q9Y5Y4)	nM	=	11
Cc1c(-c2ccc(=O)n(Cc3cccc(F)c3F)c2)c2cc(F)ccc2n1CCC(=O)O	CRTH2 (Homo sapiens, UniProt Q9Y5Y4)	nM	>	2000
